Molecular target: GDP-bound KRAS wild-type protein (Homo sapiens)
Sequence (P01116 whole entry): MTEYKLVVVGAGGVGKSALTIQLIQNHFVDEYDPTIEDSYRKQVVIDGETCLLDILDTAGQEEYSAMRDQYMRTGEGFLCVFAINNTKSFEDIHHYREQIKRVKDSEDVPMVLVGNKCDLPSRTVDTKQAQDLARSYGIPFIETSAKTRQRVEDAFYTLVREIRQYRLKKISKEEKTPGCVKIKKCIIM
Experiment: Binding to KRAS by surface plasmon resonance (SPR), Single Cycle Kinetics
Conditions: SPR, Single Cycle Kinetics, GDP-bound KRAS wild-type protein; read-out: KRAS KD
Endpoint name: Kd (nM)
Write it as a number; the unit nM goes unstated.

Problem: Would you mind telling me what Kd value was observed for `CC[C@H](C)[C@@H]1NC(=O)[C@H](CC(C)C)N(C)C(=O)C[C@@H](C(=O)N2CCOCC2)N(C)C(=O)[C@H](C2CCCC2)N(C)C(=O)C2(CCC2)NC(=O)[C@@H]2C[C@@H](OCC(F)F)CN2C(=O)[C@H](CCc2cc(F)c(C(F)(F)F)c(F)c2)NC(=O)CN(C)C(=O)[C@H](Cc2ccc(C(F)(F)F)cc2)N2CCCC[C@@H](C2=O)N(C)C(=O)CN(C)C1=O` ?
Result: 0.025

Problem: // lookup Kd for `CCO[C@@H]1C[C@H]2C(=O)NC3(CC(C)(C)C3)C(=O)N(C)[C@@H](C(CC)CC)C(=O)N(C)[C@H](C(=O)N(C)C)CC(=O)N(C)[C@@H](COC)C(=O)N[C@@H]([C@@H](C)CC)C(=O)N(C)CC(=O)N(C)[C@H]3C/C=C\CCN(C3=O)[C@@H](CC3CCCCC3)C(=O)N(C)CC(=O)N[C@@H](CCc3cc(F)c(C(F)(F)F)c(F)c3)C(=O)N2C1`
Result: 1.1

Problem: Suppose we examine the molecule `CCO[C@@H]1C[C@H]2C(=O)NC3(CC(F)(F)C3)C(=O)N(C)[C@@H](C(CC)CC)C(=O)N3CCC[C@@H]3CC(=O)N(C)[C@@H](CC3CC3)C(=O)N[C@@H]([C@@H](C)CC)C(=O)N(C)CC(=O)N(C)[C@H]3C/C=C\CCN(C3=O)[C@@H](Cc3ccc(C(F)(F)F)cc3)C(=O)N(C)CC(=O)N[C@@H](CCc3cc(F)c(C(F)(F)F)c(F)c3)C(=O)N2C1` ; what Kd value has been reported?
Result: 1.1

###

Biological target: GDP-bound KRAS wild-type protein (Homo sapiens)
Experiment: Binding to KRAS by surface plasmon resonance (SPR), Single Cycle Kinetics
Conditions: SPR Single Cycle Kinetics, GDP-bound KRAS wild-type protein, 1:1 binding model; read-out: KRAS KD
Where a SMILES comes first, the peptide text is derived from it. Bridges are numbered along the chain shown (N, C = ends). [ ]: non-standard residue; d: D form. The star is where a group is joined. hPhe(3-Cl-4-CF3) = N[C@@H](CCc1ccc(C(F)(F)F)c(Cl)c1)C(=O)O; NPrPhe(4-CF3) = CCCN[C@@H](Cc1ccc(C(F)(F)F)cc1)C(=O)O; NMeGly(cPent) = CN[C@H](C(=O)O)C1CCCC1; NMeD = CN[C@@H](CC(=O)O)C(=O)O; NMeL = CN[C@@H](CC(C)C)C(=O)O; hPip = O=C(O)[C@@H]1CCCCCN1; Morpholide = C1CN(*)CCO1; Ac5c = NC1(C(=O)O)CCCC1; Ac4c = NC1(C(=O)O)CCC1; NEtG = CCNCC(=O)O; Sar = CNCC(=O)O
For each record, write down the corresponding pKd.
API: returns pKd as number; meaning -log10 of concentration in mol/L.

Problem: Query: pKd; subject: CCCN1C(=O)CN(C)C(=O)CN(CC)C(=O)[C@H]([C@@H](C)CC)NC(=O)[C@@H]2CCCCCN2C(=O)C[C@@H](C(=O)N2CCOCC2)N(C)C(=O)[C@H](C2CCCC2)N(C)C(=O)C2(CCCC2)NC(=O)[C@@H]2CCCN2C(=O)[C@H](CCc2ccc(C(F)(F)F)c(Cl)c2)NC(=O)CN(C)C(=O)[C@@H]1Cc1ccc(C(F)(F)F)cc1 [PP0289] ([hPip]I[NEtG][Sar][NPrPhe(4-CF3)][Sar][hPhe(3-Cl-4-CF3)]P[Ac5c][NMeGly(cPent)][NMeD]-Morpholide; lactam N-11)
Result: 8.66

Problem: // returns reported pKd for input `CC[C@H](C)[C@@H]1NC(=O)[C@H](CC(C)C)N(C)C(=O)C[C@@H](C(=O)N2CCOCC2)N(C)C(=O)[C@H](C2CCCC2)N(C)C(=O)C2(CCCC2)NC(=O)[C@@H]2CCCN2C(=O)[C@H](CCc2cc(F)c(C(F)(F)F)c(F)c2)NC(=O)CN(C)C(=O)[C@H](Cc2ccc(C(F)(F)F)cc2)N2CCCCC[C@@H](C2=O)N(C)C(=O)[C@@H]2CCCN2C1=O`
Result: 7.55

Problem: Request the reported pKd associated with `CC[C@H](C)[C@@H]1NC(=O)[C@H](C)N(C)C(=O)C[C@@H](C(=O)N(C)C)N(C)C(=O)[C@H](C2CCCC2)N(C)C(=O)C2(CCC2)NC(=O)[C@@H]2CC(F)(F)CN2C(=O)[C@H](CCc2cc(F)c(C(F)(F)F)c(F)c2)NC(=O)CN(C)C(=O)[C@H](Cc2ccc(C(F)(F)F)cc2)N2CCCCC[C@@H](C2=O)N(C)C(=O)CN(C)C1=O`
Result: 9.25

Problem: What measured pKd goes with `CCC[C@H]1C(=O)N[C@@H]([C@@H](C)CC)C(=O)N(C2CC2)CC(=O)N(C)[C@H]2C/C=C\CCN(C2=O)[C@@H](Cc2ccc(C(F)(F)F)cc2)C(=O)N(C)CC(=O)N[C@@H](CCc2ccc(Cl)c(Cl)c2)C(=O)N2C[C@H](OCC)C[C@H]2C(=O)NC2(CC(C)(C)C2)C(=O)N(C)[C@@H](CC(C)(C)C)C(=O)N(C)[C@H](C(=O)N(C)C)CC(=O)N1C` ?
Result: 9.06

Problem: Fill blank: measured pKd of the compound CCCN1C(=O)CN(C)C(=O)CN(CC)C(=O)[C@H]([C@@H](C)CC)NC(=O)[C@H](CC(C)C)N(C)C(=O)C[C@@H](C(=O)N(C)C)N(C)C(=O)[C@H](C2CCCC2)N(C)C(=O)C2(CCC2)NC(=O)[C@@H]2CCCN2C(=O)[C@H](CCc2ccc(C(F)(F)F)c(Cl)c2)NC(=O)CN(C)C(=O)[C@@H]1Cc1ccc(C(F)(F)F)cc1 [PP0424] ([NMeL]I[NEtG][Sar][NPrPhe(4-CF3)][Sar][hPhe(3-Cl-4-CF3)]P[Ac4c][NMeGly(cPent)][NMeD]-NMe2; lactam N-11) is ____.
Result: 9.77

Attribution: patent US20240158446A1
